Recorded Selectivity high ATP CDK9 over high ATP CDK2: IC50 (high ATP CDK2)/IC50 (high ATP CDK9) values for a group of compounds are listed next.
# TARGET_OF_ASSAY: CDK9/CycT1 (Homo sapiens, UniProt P50750)
# Construct: Recombinant full-length His-tagged human CDK9 and CycT1; His; purchased Invitrogen PV4131; host or cells: insect cells
# Sequence (P50750 whole entry): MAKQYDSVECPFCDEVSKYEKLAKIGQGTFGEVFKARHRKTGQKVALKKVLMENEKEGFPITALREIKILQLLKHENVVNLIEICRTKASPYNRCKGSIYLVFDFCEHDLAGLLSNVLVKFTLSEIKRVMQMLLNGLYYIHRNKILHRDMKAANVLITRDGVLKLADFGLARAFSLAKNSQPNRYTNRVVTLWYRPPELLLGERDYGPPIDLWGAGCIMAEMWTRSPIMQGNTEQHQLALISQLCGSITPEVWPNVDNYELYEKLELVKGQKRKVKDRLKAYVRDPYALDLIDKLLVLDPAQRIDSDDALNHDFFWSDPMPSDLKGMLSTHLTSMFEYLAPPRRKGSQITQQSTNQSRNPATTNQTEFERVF
# Sequence (O60563 whole entry partner): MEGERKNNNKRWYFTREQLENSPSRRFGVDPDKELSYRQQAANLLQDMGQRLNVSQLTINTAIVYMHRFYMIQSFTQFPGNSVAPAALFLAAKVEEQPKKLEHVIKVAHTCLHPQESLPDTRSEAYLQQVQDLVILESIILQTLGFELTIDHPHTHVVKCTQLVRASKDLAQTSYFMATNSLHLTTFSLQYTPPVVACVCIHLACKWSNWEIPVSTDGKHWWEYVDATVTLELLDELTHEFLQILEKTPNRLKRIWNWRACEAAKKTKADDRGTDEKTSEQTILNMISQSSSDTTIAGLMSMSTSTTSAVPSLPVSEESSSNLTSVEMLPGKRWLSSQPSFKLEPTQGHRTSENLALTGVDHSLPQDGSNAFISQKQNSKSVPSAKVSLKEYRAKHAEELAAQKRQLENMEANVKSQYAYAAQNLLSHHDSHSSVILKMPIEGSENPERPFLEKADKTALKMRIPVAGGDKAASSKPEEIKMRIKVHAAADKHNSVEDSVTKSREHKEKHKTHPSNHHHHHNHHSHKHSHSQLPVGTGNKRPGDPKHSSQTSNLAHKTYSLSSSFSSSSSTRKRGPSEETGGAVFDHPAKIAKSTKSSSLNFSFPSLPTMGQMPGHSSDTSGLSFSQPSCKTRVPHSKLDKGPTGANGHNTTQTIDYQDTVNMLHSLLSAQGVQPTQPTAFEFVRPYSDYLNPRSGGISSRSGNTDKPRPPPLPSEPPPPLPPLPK
# METHOD_DESCRIPTION: CDK9/CycT1 high ATP kinase assay (TR-FRET, Method 1b)
# Type: biochemical
# CONDITION_PARAMETERS: Methods 1b and 2b, 2 mM ATP
PARAMETER: Selectivity high ATP CDK9 over high ATP CDK2: IC50 (high ATP CDK2)/IC50 (high ATP CDK9)

COMPOUND | LIMIT_OPERATOR | EXPERIMENTAL_RESULT
CS(=N)(=O)Cc1cc2cc(c1)OCCCCNc1cc(F)ccc1-c1nc(ncc1F)N2 (racemic) | = | 151
CC(C)(C)OC(=O)N=S(C)(=O)Cc1cc2cc(c1)OCCCCNc1cc(F)ccc1-c1nc(ncc1F)N2 (racemic) | = | 713
CSCc1cc2nc(c1)OCCCCCc1cc(F)ccc1-c1cc(ncc1F)N2 | > | 81.3
CN1CCCCNc2cc(F)ccc2-c2nc(ncc2F)Nc2cc(CS(C)(=N)=O)cc1c2.O=CO (racemic) | = | 283
CS(=O)(Cc1cc2nc(c1)Nc1cc(c(F)cn1)-c1ccc(F)cc1OCCCCN2)=NC(=O)OCc1ccccc1 (racemic) | = | 634
CS(=N)(=O)Cc1cc2nc(c1)Nc1cc(c(F)cn1)-c1ccc(F)cc1OCCCN2 (racemic) | = | 41.4
CC(C)(C)OC(=O)N=S(C)(=O)Cc1cc2nc(c1)Nc1cc(c(F)cn1)-c1ccc(F)cc1OCCCCCN2 (racemic) | = | 37.2
CC(C)(C)OC(=O)N=S(C)(=O)Cc1cc2cc(c1)OCCCNc1cc(F)ccc1-c1nc(ncc1F)N2 (racemic) | = | 426
CN1CCCCOc2cc(F)ccc2-c2cc(ncc2F)Nc2cc(CS(C)(=N)=O)cc1n2 (racemic) | = | 31

---

# TARGET_OF_ASSAY: CDK2/CycE (Homo sapiens, UniProt P24941)
# Construct: GST; purchased ProQinase GmbH (Freiburg, Germany); host or cells: insect cells (Sf9)
# METHOD_DESCRIPTION: CDK2/CycE kinase assay (TR-FRET, Method 2a)
# Type: biochemical
# CONDITION_PARAMETERS: 10 μM ATP
pIC50: −log10 of the molar value.
Recorded pIC50 values for a group of compounds are listed next.

COMPOUND | TARGET_OF_ASSAY | pIC50
CC(C)(C)OC(=O)N=S(C)(=O)Cc1cc2cc(c1)Nc1ncc(F)c(n1)-c1ccc(F)cc1OCCCCN2 (racemic) [Example 24] | CDK2/CycE (Homo sapiens, UniProt P24941) | 5.59
CSCc1cc2nc(c1F)N(C)CCCCOc1cc(F)ccc1-c1cc(ncc1F)N2 [Example 12] | CDK2/CycE (Homo sapiens, UniProt P24941) | 7.57
CS(=N)(=O)Cc1cc2nc(c1)Nc1cc(c(F)cn1)-c1ccc(F)cc1OCCCN2 (racemic) [Example 8] | CDK2/CycE (Homo sapiens, UniProt P24941) | 8.04
CN1CCCCOc2cc(F)ccc2-c2nc(ncc2F)Nc2cc(CS(C)(=N)=O)cc1c2 (racemic) [Example 23] | CDK2/CycE (Homo sapiens, UniProt P24941) | 6.98

---

# TARGET_OF_ASSAY: CDK9/CycT1 (Homo sapiens, UniProt P50750)
# Construct: Recombinant full-length His-tagged human CDK9 and CycT1; His; purchased Invitrogen PV4131; host or cells: insect cells
# METHOD_DESCRIPTION: CDK9/CycT1 kinase assay (TR-FRET, Method 1a)
# Assay type: biochemical
# CONDITION_PARAMETERS: Methods 1a and 2a, 10 μM ATP
Mark no for Selectivity CDK9 over CDK2: IC50 (CDK2)/IC50 (CDK9) values under 8, and yes for everything at or above.

COMPOUND | CLASS
CN1CCCCOc2cc(F)ccc2-c2cc(ncc2F)Nc2cc(CS(C)(=N)=O)cc1n2 (racemic) | no
CSCc1cc2nc(c1F)N(C)CCCCOc1cc(F)ccc1-c1cc(ncc1F)N2 | no
CS(=O)(Cc1cc2nc(c1)Nc1cc(c(F)cn1)-c1ccc(F)cc1OCCCCN2)=NC(=O)OCc1ccccc1 (racemic) | yes
CS(=N)(=O)Cc1cc2cc(c1)OCCCCNc1cc(F)ccc1-c1nc(ncc1F)N2 (racemic) | no
CS(=N)(=O)Cc1cc2nc(c1)Nc1cc(c(F)cn1)-c1ccc(F)cc1OCCCN2 (racemic) | no
CS(=N)(=O)Cc1cc2nc(c1)OCCCCCc1cc(F)ccc1-c1cc(ncc1F)N2 (racemic) | yes
CS(=N)(=O)Cc1cc2nc(c1)Nc1cc(c(F)cn1)-c1ccc(F)cc1OCCCCN2 (racemic) | no
CC(C)(C)OC(=O)N=S(C)(=O)Cc1cc2cc(c1)Nc1ncc(F)c(n1)-c1ccc(F)cc1OCCCCN2 (racemic) | yes
CSCc1cc2nc(c1)OCCCCCc1cc(F)ccc1-c1cc(ncc1F)N2 | yes
CC(C)(C)OC(=O)N=S(C)(=O)Cc1cc2cc(c1)OCCCCNc1cc(F)ccc1-c1nc(ncc1F)N2 (racemic) | yes
CN1CCCCNc2cc(F)ccc2-c2nc(ncc2F)Nc2cc(CS(C)(=N)=O)cc1c2.O=CO (racemic) | yes
CN1CCCCOc2cc(F)ccc2-c2nc(ncc2F)Nc2cc(CS(C)(=N)=O)cc1c2 (racemic) | yes
C[S+]([O-])Cc1cc2nc(c1)OCCCCc1cc(F)ccc1-c1cc(ncc1F)N2 (racemic) | yes
CC(C)(C)OC(=O)N=S(C)(=O)Cc1cc2nc(c1)Nc1cc(c(F)cn1)-c1ccc(F)cc1OCCCCCN2 (racemic) | no
CC(C)(C)OC(=O)N=S(C)(=O)Cc1cc2nc(c1)Nc1cc(c(F)cn1)-c1ccc(F)cc1OCCCN2 (racemic) | no
CSCc1cc2nc(c1)Nc1cc(c(F)cn1)-c1ccc(F)cc1OCCCN2 | yes
CSCc1cc2nc(c1)OCCCCc1cc(F)ccc1-c1cc(ncc1F)N2 | yes
C[S+]([O-])Cc1cc2nc(c1)OCCCCCc1cc(F)ccc1-c1cc(ncc1F)N2 (racemic) | yes

---

Recorded Target resident time values for a group of molecules are listed next.
# TARGET_OF_ASSAY: T1, human PTEFb (CDK9/Cyclin T1) (Homo sapiens, UniProt P50750)
# T1 construct: purchased ProQinase, Freiburg, Germany
# METHOD_DESCRIPTION: Surface Plasmon Resonance PTEFb (Method 8)
# Assay type: binding
# CONDITION_PARAMETERS: 25° C.; 1/koff; experimental parameters A-G per value
Marks after values point to notes of the source that are not given here.
PARAMETER: Target resident time

MOLECULE | PARAMETER | EXPERIMENTAL_RESULT
CC(C)(C)OC(=O)N=S(C)(=O)Cc1cc2nc(c1)Nc1cc(c(F)cn1)-c1ccc(F)cc1OCCCN2 (racemic) [Example 7] | Target resident time | >666* min
CS(=N)(=O)Cc1cc2nc(c1)OCCCCCc1cc(F)ccc1-c1cc(ncc1F)N2 (racemic) [Example 20] | Target resident time | 14.7* min
CN1CCCCOc2cc(F)ccc2-c2cc(ncc2F)Nc2cc(CS(C)(=N)=O)cc1n2 (racemic) [Example 11] | Target resident time | >666* min
CN1CCCCOc2cc(F)ccc2-c2nc(ncc2F)Nc2cc(CS(C)(=N)=O)cc1c2 (racemic) [Example 23] | Target resident time | 87.3* min
C[S+]([O-])Cc1cc2nc(c1)OCCCCc1cc(F)ccc1-c1cc(ncc1F)N2 (racemic) [Example 5] | Target resident time | 17.2 min
C[S+]([O-])Cc1cc2nc(c1)OCCCCCc1cc(F)ccc1-c1cc(ncc1F)N2 (racemic) [Example 19] | Target resident time | 4.8* min
CSCc1cc2nc(c1)OCCCCc1cc(F)ccc1-c1cc(ncc1F)N2 [Example 4] | Target resident time | 14.6 min

---

# TARGET_OF_ASSAY: T1, human PTEFb (CDK9/Cyclin T1) (Homo sapiens, UniProt P50750)
# T1 construct: purchased ProQinase, Freiburg, Germany
# METHOD_DESCRIPTION: Surface Plasmon Resonance PTEFb (Method 8)
# Format: binding
# CONDITION_PARAMETERS: 25° C.; experimental parameters A-G per value; read-out: Dissociation rate constant koff
Mark FALSE for koff values under 0.0004 s⁻¹, and TRUE for everything at or above.

COMPOUND | CLASS
CC(C)(C)OC(=O)N=S(C)(=O)Cc1cc2nc(c1)Nc1cc(c(F)cn1)-c1ccc(F)cc1OCCCN2 (racemic) | FALSE
CS(=O)(Cc1cc2nc(c1)Nc1cc(c(F)cn1)-c1ccc(F)cc1OCCCCN2)=NC(=O)OCc1ccccc1 (racemic) | FALSE
CN1CCCCOc2cc(F)ccc2-c2cc(ncc2F)Nc2cc(CS(C)(=N)=O)cc1n2 (racemic) | FALSE
C[S+]([O-])Cc1cc2nc(c1)OCCCCCc1cc(F)ccc1-c1cc(ncc1F)N2 (racemic) | TRUE
CSCc1cc2nc(c1)OCCCCc1cc(F)ccc1-c1cc(ncc1F)N2 | TRUE
C[S+]([O-])Cc1cc2nc(c1)OCCCCc1cc(F)ccc1-c1cc(ncc1F)N2 (racemic) | TRUE
CN1CCCCOc2cc(F)ccc2-c2nc(ncc2F)Nc2cc(CS(C)(=N)=O)cc1c2 (racemic) | FALSE
CC(C)(C)OC(=O)N=S(C)(=O)Cc1cc2cc(c1)OCCCCNc1cc(F)ccc1-c1nc(ncc1F)N2 (racemic) | FALSE
CS(=N)(=O)Cc1cc2nc(c1)OCCCCCc1cc(F)ccc1-c1cc(ncc1F)N2 (racemic) | TRUE
